# Ranking score per entry
- system tested: human NTCP (Homo sapiens, UniProt Q14973)
- Sequence (Q14973 1-349): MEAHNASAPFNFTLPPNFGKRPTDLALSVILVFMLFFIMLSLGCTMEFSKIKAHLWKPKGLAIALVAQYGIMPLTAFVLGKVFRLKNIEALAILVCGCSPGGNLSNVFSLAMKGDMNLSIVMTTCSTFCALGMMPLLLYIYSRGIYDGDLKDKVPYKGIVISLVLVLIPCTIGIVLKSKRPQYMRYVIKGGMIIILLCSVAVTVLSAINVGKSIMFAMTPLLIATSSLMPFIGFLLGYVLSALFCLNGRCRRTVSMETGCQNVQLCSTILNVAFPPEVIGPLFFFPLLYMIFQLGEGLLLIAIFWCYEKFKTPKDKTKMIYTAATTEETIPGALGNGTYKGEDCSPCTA
- assay summary: Screening taurocholate uptake assay (96-well, [14C]taurocholate, 10 µM drug)
- measurement context: ranking over the functional and the binding screening assay
// no unit, no text: just the number

{"compound": "O=c1c2ccccc2[se]n1-c1ccccc1 [Ebselen]", "Ranking score": 12.2474}
{"compound": "CCCCC1=NC2(CCCC2)C(=O)N1Cc1ccc(-c2ccccc2-c2nnn[nH]2)cc1 [irbesartan, reference compound]", "Ranking score": 197.737}
{"compound": "COc1ccc(/C=C/C(=O)Nc2ccccc2C(=O)O)cc1OC [Tranilast]", "Ranking score": 106.883}
{"compound": "CC(=O)O[C@@]12CO[C@@H]1C[C@H](O)[C@@]1(C)C(=O)[C@H](O)C3=C(C)[C@@H](OC(=O)[C@H](O)[C@@H](NC(=O)OC(C)(C)C)c4ccccc4)C[C@@](O)([C@@H](OC(=O)c4ccccc4)[C@H]21)C3(C)C [Docetaxel]", "Ranking score": 106.066}

Qu. # get_value(readout='Ranking score', item= CC(=O)Nc1ccc(OCC(O)CNC(C)C)cc1 (stereo not shown) [Practolol] )
Ans. 213.764

----------
- system tested: human NTCP (Homo sapiens, UniProt Q14973)
- Sequence (Q14973 1-349): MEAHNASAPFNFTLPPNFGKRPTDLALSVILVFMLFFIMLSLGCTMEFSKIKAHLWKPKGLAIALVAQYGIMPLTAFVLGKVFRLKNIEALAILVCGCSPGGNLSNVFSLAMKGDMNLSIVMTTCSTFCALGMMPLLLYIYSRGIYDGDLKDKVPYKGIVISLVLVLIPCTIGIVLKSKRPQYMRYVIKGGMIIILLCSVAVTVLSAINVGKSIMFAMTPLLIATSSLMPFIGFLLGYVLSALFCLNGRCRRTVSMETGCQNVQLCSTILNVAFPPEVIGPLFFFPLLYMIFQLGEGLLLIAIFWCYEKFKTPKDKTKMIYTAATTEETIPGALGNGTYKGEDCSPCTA
- assay summary: Screening taurocholate uptake assay (96-well, [14C]taurocholate, 10 µM drug)
- measurement context: combined ranking from functional and binding screening assays
Counter-ions that a name gives are not always drawn.
endpoint: Ranking score
// no unit, no text: just the number

{"molecule": "O=P(O)(O)C(O)(Cn1ccnc1)P(=O)(O)O [Zoledronic acid hydrate]", "numeric value": 422.203}
{"molecule": "CC(C)[C@H]1CC[C@H](C(=O)N[C@H](Cc2ccccc2)C(=O)O)CC1 [Nateglinide]", "numeric value": 461.181}
{"molecule": "CC1CS(=O)(=O)CCN1/N=C/c1ccc([N+](=O)[O-])o1 (centres unmarked)", "numeric value": 381.366}
{"molecule": "CN1Cc2c(N)cccc2C(c2ccccc2)C1 (centres unmarked) [Nomifensine maleate]", "numeric value": 394.208}
{"molecule": "CCC(Cc1c(I)cc(I)c(N)c1I)C(=O)O (centres unmarked)", "numeric value": 395.161}
{"molecule": "CC(=O)c1ccc2c(c1)N(CCCN(C)C)c1ccccc1S2.O=C(O)/C=C\\C(=O)O [Acetopromazine maleate salt]", "numeric value": 331.723}
{"molecule": "C=CCOc1ccccc1OCC(O)CNC(C)C (centres unmarked) [Oxprenolol hydrochloride]", "numeric value": 434.185}
{"molecule": "Cc1nc2ccc(CN(C)c3ccc(C(=O)N[C@@H](CCC(=O)O)C(=O)O)s3)cc2c(=O)[nH]1", "numeric value": 413.367}

Qu. # get_value(readout='Ranking score', item= CCN(CCCc1ccccc1)CCCc1ccccc1.O=C(O)CC(O)(CC(=O)O)C(=O)O [Alverine citrate salt] )
Ans. 318.591

Qu. # get_value(readout='Ranking score', item= C[C@H](N)[C@H](O)c1ccc(O)c(O)c1 )
Ans. 346.693

Qu. # get_value(readout='Ranking score', item= COC(=O)C1=C(C)NC(C)=C(C(=O)O[C@@H]2CCCN(Cc3ccccc3)C2)[C@@H]1c1cccc([N+](=O)[O-])c1.Cl (racemic) [Benidipine hydrochloride] )
Ans. 426.727

Qu. # get_value(readout='Ranking score', item= Cc1ccc(-c2ncc(Cl)cc2-c2ccc(S(C)(=O)=O)cc2)cn1 )
Ans. 393.756

Qu. # get_value(readout='Ranking score', item= O=P(O)(O)C(Cl)(Cl)P(=O)(O)O [Clodronate] )
Ans. 443.089

Qu. # get_value(readout='Ranking score', item= CC(C)(C)NC[C@H](O)COc1ccccc1C1CCCC1 [Penbutolol sulfate] )
Ans. 368.646

Qu. # get_value(readout='Ranking score', item= C[C@H]1NC(=O)NC1=O )
Ans. 290.241

Qu. # get_value(readout='Ranking score', item= Nc1nc(O)c2ncn(COC(CO)CO)c2n1 )
Ans. 278.51

Qu. # get_value(readout='Ranking score', item= CCCNC(C)(C)COC(=O)c1ccccc1 [Meprylcaine hydrochloride] )
Ans. 382.481

Qu. # get_value(readout='Ranking score', item= CCN1CCCC(OC(=O)C(c2ccccc2)c2ccccc2)C1 (centres unmarked) [Piperidolate hydrochloride] )
Ans. 357.281

Qu. # get_value(readout='Ranking score', item= COC(=O)C1=C(C)NC(C)=C(C(=O)OCCN(C)Cc2ccccc2)C1c1cccc([N+](=O)[O-])c1 (centres unmarked) [Nicardipine hydrochloride] )
Ans. 378.616

Qu. # get_value(readout='Ranking score', item= CCCCNC(=O)NS(=O)(=O)c1ccc(C)cc1 [Tolbutamide] )
Ans. 448.765

Qu. # get_value(readout='Ranking score', item= CN1CCN(C2=Nc3ccccc3Oc3ccc(Cl)cc32)CC1 [Loxapine succinate] )
Ans. 424.073

Qu. # get_value(readout='Ranking score', item= COc1c2occc2c(OC)c2c(=O)cc(C)oc12 )
Ans. 450.763

----------
- system tested: human NTCP (Homo sapiens)
- assay summary: Screening taurocholate uptake assay (96-well, [14C]taurocholate, 10 µM drug)
- measurement context: Prestwick library screen, 10 µM drug; B-score of taurocholate uptake
Structures can show the parent of a compound that is named as a salt.
I would appreciate it if you labelled entries 1 when B-score functional assay is 0.6 or higher, otherwise 0.

Solved cases below.
{"compound": "O=C1[C@H]2CCCC[C@H]2C(=O)N1CCCCN1CCN(c2nsc3ccccc23)CC1", "qualitative label": 0}
{"compound": "Cc1ncc(CO)c(CO)c1O [Pyridoxine hydrochloride]", "qualitative label": 1}
{"compound": "CNCCC=C1c2ccccc2CCc2ccccc21 [Nortriptyline hydrochloride]", "qualitative label": 1}
{"compound": "CC(C)(N)Cc1ccccc1.Cl [Phentermine hydrochloride]", "qualitative label": 1}

# next compound below
Qu. Could you verify whether the entry CC(=O)CC(c1ccc([N+](=O)[O-])cc1)c1c(O)c2ccccc2oc1=O (centres unmarked) shows B-score functional assay of no less than 0.6?
Ans. 1

----------
- system tested: human NTCP (Homo sapiens)
- assay summary: Screening taurocholate uptake assay (96-well, [14C]taurocholate, 10 µM drug)
- measurement context: screening taurocholate uptake, 10 µM drug
Where a name gives a salt, the structure may show the parent alone.
endpoint: B-score functional assay
// no unit, no text: just the number

For orientation, consider the following solved cases.
{"compound": "Cc1cc(-n2c(=O)[nH]c(=O)n(C)c2=O)ccc1Oc1ccc(SC(F)(F)F)cc1", "B-score functional assay": -3.14}
{"compound": "CN(C)CCN(Cc1ccccc1)c1ccccn1 [Tripelennamine hydrochloride]", "B-score functional assay": -0.493}
{"compound": "N[C@@H](Cc1ccc(O)c(O)c1)C(=O)O", "B-score functional assay": 0.049}
{"compound": "CN(C)CCOC(=O)C(c1ccccc1)C1(O)CCCC1 (centres unmarked) [Cyclopentolate hydrochloride]", "B-score functional assay": -0.521}

Qu. # get_value(readout='B-score functional assay', item= Nc1ccc(S(=O)(=O)NC(=O)c2ccccc2)cc1 [Sulfabenzamide] )
Ans. 0.164

Qu. # get_value(readout='B-score functional assay', item= c1ccc2c(c1)OCC(C1=NCCN1)O2 (centres unmarked) [Idazoxan hydrochloride] )
Ans. -2.926

Qu. # get_value(readout='B-score functional assay', item= N=C(N)c1ccc(OCCCCCOc2ccc(C(=N)N)cc2)cc1 [Pentamidine isethionate] )
Ans. -0.233

Qu. # get_value(readout='B-score functional assay', item= C=C1c2c(Cl)ccc(O)c2C(=O)C2=C(O)[C@]3(O)C(=O)C(C(N)=O)=C(O)[C@@H](N(C)C)[C@@H]3[C@@H](O)[C@H]12.O=C(O)c1cc(S(=O)(=O)O)ccc1O [Meclocycline sulfosalicylate] )
Ans. 0.486
